Reference for the values: PubChem BioAssay (NCATS)

Test: P-glycoprotein substrates identified in KB-8-5-11 adenocarcinoma cell line, qHTS therapeutic library screen (AID 1346987); further: nearly all actives have a fitted effect of over 65% in size
Details: KB-8-5-11 (P-gp overexpressing) viability, CellTiter-Glo, 72 h; series mostly up to 44.5 µM
Results filed as inconclusive are left out. Calls of active or inactive are those of the source. The call rests on the fitted dose curve; in most records, active means well fitted inhibition curve with a large enough effect; inconclusive means small, poorly fitted or top-dose-only effect; inactive means flat fitted curve, though single readings scatter.
Labels: Y for active, N for inactive

molecule="COc1cc(C(=O)O)ccc1OC1OC(CO)C(O)C(O)C1O (configuration not stated)" label=N
molecule="CC(C)=CCC/C(C)=C/CCC1(C)Oc2c(c(O)cc3c2CN(C(CCC(=O)O)C(=O)O)C3=O)CC1O (configuration not stated)" label=N
molecule=CO[C@H]1/C=C/C=C/C=C/C[C@H](OC(=O)[C@@H](C)NC(=O)C2CCCCC2)[C@H](C)[C@@H](O)/C(C)=C/CCc2cc(O)cc(c2)NC(=O)C1 label=N
molecule=Cc1ccc(NC(=O)c2ccc(CN3CC[C@H](N(C)C)C3)c(C(F)(F)F)c2)cc1Nc1nccc(-c2cncnc2)n1 label=N
molecule=CCN(Cc1cccnc1)C(=O)CN(c1ccc(OC)nc1)S(=O)(=O)c1ccccc1C label=N
molecule=CC(C)(C)NC(=O)[C@@H](c1cccnc1)N(C(=O)c1ccco1)c1ccc(C(C)(C)C)cc1 label=N
molecule=COc1cc2ncnc(Nc3ccc(O)cc3)c2cc1OC label=N
molecule="C=C1C(OC(C)=O)CCC2(C)CC3(OC)OC(=O)C(C)=C3CC12 (configuration not stated)" label=N
molecule="CC(C)c1c2cc(-c3ccnc(NC4CCC(NC5CCOCC5)CC4)n3)ccc2nn1C (configuration not stated)" label=Y
molecule=COc1ccc(C(=O)C2CCN(CC(=O)N(Cc3nc4c(c(=O)[nH]3)COCC4)CC3CC3)CC2)cc1 label=N
molecule=C=CC(=O)Nc1cc(Nc2nccc(-c3c[nH]c4ccccc34)n2)c(OC)cc1N(C)CCN(C)C label=Y
molecule="CC(C)CCC1(O)C(=O)C(C)(C)C(O[C@@H]2O[C@H](CO)[C@@H](O)[C@H](O)[C@H]2O)C(C)(C)C1O (some centres not stated)" label=N
molecule=Cc1ncc(CCCN(C)C)cc1Nc1ncc2c(n1)-c1ccc(C(F)(F)F)cc1NC(=S)C2 label=Y
molecule="O=C(O)c1ccc(OC2OC(CO)C(O)C(O)C2O)cc1 (configuration not stated)" label=N
molecule=O=C(OC[C@@]1(O)CO[C@@H](O[C@H]2[C@H](Oc3ccc(O)cc3)O[C@H](CO)[C@@H](O)[C@@H]2O)[C@@H]1O)c1ccc(O)cc1 label=N
molecule=CO[C@H]1/C=C\O[C@@]2(C)Oc3c(C)c(O)c4c(O)c(c5c(nc6cc(C)ccn65)c4c3C2=O)NC(=O)/C(C)=C\C=C/[C@H](C)[C@H](O)[C@@H](C)[C@@H](O)[C@@H](C)[C@H](OC(C)=O)[C@@H]1C label=N
molecule=O=C(O)[C@H](Cc1ccc(Nc2nccc3ccncc23)cc1)NC1=C(Br)C(=O)C12CCCCC2 label=N

----------
System: KB-3-1
Test: Cytotoxic Profiling of Annotated Libraries Using Quantitative High-Throughput Screening (AID 1296008); further: nearly all actives have a fitted effect of over 60% in size; further: potency means the concentration at half of the fitted maximal effect
Conditions: Five cell lines viability, CellTiter-Glo ATP luminescence, 48-72 h
Records with an inconclusive call do not appear. The source made the active and inactive calls. Calls come from the whole dose curve; as a rule, active = well fitted inhibition curve with a large enough effect; inconclusive = small, poorly fitted or top-dose-only effect; inactive = flat fitted curve, though single readings scatter.
Readout name: Potency

compound="CC/C=C\\C/C=C\\C/C=C\\CCCCCCCC(=O)OCC(O)COC1OC(CO)C(O)C(O)C1O (stereo not drawn)" result=inactive
compound="CCC(O)(C(=O)OCc1ccccc1NC(=O)CCC(=O)O)C(C)O (stereo not drawn)" result=inactive
compound=Cc1cc(-c2cc(O)ccc2Cl)cc2nnc(Nc3ccc(OCCN4CCCC4)cc3)nc12 result="4.61 µM (active)"
compound="Cc1ccc(C(=O)N(CCCN)C(c2oc3cc(Cl)ccc3c(=O)c2Cc2ccccc2)C(C)C)cc1 (stereo not drawn)" result="0.0065 µM (active)"
compound="CC1CC(O)C2(OC1=O)OC1C(O)C3C4CCC5CC(OC6OC(CO)C(O)C(O)C6OC6OC(C)C(O)C(O)C6O)CCC5(C)C4CCC3(C)C1C2C (stereo not drawn)" result=inactive
compound="Nc1nccn2c(C3CCC(C(=O)O)CC3)nc(-c3cc4cccc(Cl)c4[nH]3)c12 (stereo not drawn)" result="1.84 µM (active)"
compound=CCNC(=O)Nc1ccc(-c2nc3c(c(N4CCOC[C@@H]4C)n2)CCN(c2ncccn2)C3)cc1 result="0.291 µM (active)"
compound="CC1(C)C2CC(OC3OC(COC4OCC(O)(CO)C4O)C(O)C(O)C3O)C1(C)CC2O (stereo not drawn)" result=inactive
compound="COC(=O)C1(C)c2[nH]c3ccccc3c2CCN1C(=O)CCl (stereo not drawn)" result="20.6 µM (active)"
compound="CC1CC[C@]2(C(=O)O)CC[C@]3(C(=O)O)C(=CCC4[C@@]5(C)CC[C@H](OC6OC(C)C(O)C(OC7OC(CO)C(O)C(O)C7O)C6O)C(C)(C)C5CC[C@]43C)C2C1C (stereo partly drawn)" result=inactive
compound="CN1CCN(C2CCC(n3cc(-c4ccc(Oc5ccccc5)cc4)c4c(N)ncnc43)CC2)CC1 (stereo not drawn)" result="20.6 µM (active)"
compound=CCN(CC)Cc1ccc(C(=O)N(CCc2ccccc2OC)[C@@H]2CCNC2)cc1 result="3.99 µM (active)"
compound="CC(=O)NCC(=O)N1C2CCC1c1cc(Nc3ncc(C(F)(F)F)c(NC4CCC4)n3)ccc12 (stereo not drawn)" result="1.03 µM (active)"
compound=COc1cc(N2CCC(N3CCN(C)CC3)CC2)ccc1Nc1ncc(Cl)c(-c2c[nH]c3ccccc23)n1 result="4.61 µM (active)"
compound="CC(=O)c1ccc2c(c1)C(O)C(C(C)(C)O)O2 (stereo not drawn)" result=inactive
compound="C=C1C(=O)OC2C1C(O)CC1(C)C(O)CCC(C=O)C21 (stereo not drawn)" result=inactive
compound=Nc1nc2c(c(=O)[nH]1)C[C@@H](CCc1ccc(C(=O)N[C@@H](CCC(=O)O)C(=O)O)cc1)CN2 result="0.058 µM (active)"
compound="CC1=C(C(=O)O)/C(=C\\CO[C@@H]2O[C@H](CO)[C@@H](O)[C@H](O)[C@H]2O)C(OC(=O)/C=C\\c2ccc(O)cc2)C1 (stereo partly drawn)" result=inactive

----------
System: Zika virus NS2B-NS3 protease (unlinked complex)
Assay: Primary screen GU Rhodamine qHTS for Zika virus inhibitors: Unlinked NS2B-NS3 protease assay (AID 1347159); further: nearly all actives have a fitted effect of over 60% in size
Conditions: Recombinant ZIKV NS2B-NS3 protease, Rhodamine110 substrate fluorescence; series mostly up to 107 µM
Inconclusive results are not listed. Activity calls are given as the source filed them. Calls come from the whole dose curve; as a rule, active = well fitted inhibition curve with a large enough effect; inconclusive = small, poorly fitted or top-dose-only effect; inactive = no such curve, though single readings can be large or run the other way.
Classes used: YES for active, NO for inactive

compound="CC(NC(=O)C(O)C(C)C)C(=O)NC1C(=O)N(C)CCc2ccccc21 (centres undefined)" label=NO
compound="C=CC1C(OC2OC(CO)C(O)C(O)C2O)OC=C(C(=O)OC)C1CC(=O)OCC1C(C)C(O)CC1C(CO)COC(=O)CC1C(C(=O)O)=COC(OC2OC(CO)C(O)C(O)C2O)/C1=C\\C (centres undefined)" label=NO
compound="C/C1=C\\CCC(C)CCO[C@@H]2O[C@H](CO[C@@H]3OC[C@H](O)[C@H](O)[C@H]3OC1=O)[C@@H](O)[C@H](O)[C@H]2O (some centres undefined)" label=YES
compound=COc1ccc(C(=O)Nc2ncc(-c3ccc(C(=O)O)cc3)s2)cc1 label=YES
compound=Cc1cccc(C)c1OCc1cc(C(=O)N2CCC(c3ccncc3)CC2)no1 label=NO
compound="O=C1CCC=CC1(O)C(=O)OCc1ccccc1O[C@@H]1O[C@H](CO)[C@@H](O)[C@H](O)[C@H]1O (some centres undefined)" label=NO
compound="Nc1nccn2c(C3CCC(C(=O)O)CC3)nc(-c3cc4cccc(Cl)c4[nH]3)c12 (centres undefined)" label=YES
compound=CC(=O)N1CCN(Cc2ccc([C@H](C)Nc3nccc(N4C(=O)OC[C@@H]4C(C)C)n3)cc2)CC1 label=NO
compound="CC12CCC(C(OC3OC(COC4OCC(O)(CO)C4O)C(O)C(O)C3O)C1)C(C)(C)O2 (centres undefined)" label=NO

----------
Assay: Primary fluorescence-based thiol-reactive (MSTI) qHTS assay for identification of artifact compounds. (AID 1845221); further: nearly all actives have a fitted effect of over 65% in size
Conditions: MSTI thiol-reactivity probe, 1 h; series mostly up to 53.8 µM
Inconclusive results are not listed. Activity calls are given as the source filed them. Calls come from the whole dose curve; as a rule, active = well fitted inhibition curve with a large enough effect; inconclusive = small, poorly fitted or top-dose-only effect; inactive = no such curve, though single readings can be large or run the other way.
Outcomes: active, inactive

compound="CCC(Nc1ncnc2nc[nH]c12)c1nc2cccc(F)c2c(=O)n1-c1ccccc1 (centres undefined)" label=inactive
compound=C/C1=C\[C@H]2OC(=O)[C@@H](C)[C@@H]2CC/C(C(=O)O)=C/CC1 label=active
compound=C[C@@]1(O)[C@H](O)[C@@H](CO)O[C@H]1n1ccc(N)nc1=O label=inactive
compound="COc1c2c(cc3c1-c1c(cc4c(c1OC)OCO4)CC(C)C(C)C3)OCO2 (centres undefined)" label=inactive
compound="CC(C)c1c2cc(-c3ccnc(NC4CCC(NC5CCOCC5)CC4)n3)ccc2nn1C (centres undefined)" label=inactive
compound="CC(Oc1cc(-n2cnc3ccc(CN4CCN(C)CC4)cc32)sc1C(N)=O)c1ccccc1C(F)(F)F (centres undefined)" label=inactive
compound=CCN1CCN(Cc2ccc(NC(=O)c3ccc(C)c(/C=C/c4cnc5[nH]ccc5c4OC)c3)cc2C(F)(F)F)CC1 label=inactive
compound=COc1cc(C(=O)NC2CCN(C)CC2)c(F)cc1Nc1ncc2c(n1)N(C1CCCC1)CC(F)(F)C(=O)N2C label=inactive
compound=O=C(O)c1cccc(S(=O)(=O)N2CCc3ccccc3C2)c1 label=inactive
